molecular target: butyrylcholinesterase (BuChE) (Homo sapiens, UniProt P06276)
Sequence (P06276 29-602): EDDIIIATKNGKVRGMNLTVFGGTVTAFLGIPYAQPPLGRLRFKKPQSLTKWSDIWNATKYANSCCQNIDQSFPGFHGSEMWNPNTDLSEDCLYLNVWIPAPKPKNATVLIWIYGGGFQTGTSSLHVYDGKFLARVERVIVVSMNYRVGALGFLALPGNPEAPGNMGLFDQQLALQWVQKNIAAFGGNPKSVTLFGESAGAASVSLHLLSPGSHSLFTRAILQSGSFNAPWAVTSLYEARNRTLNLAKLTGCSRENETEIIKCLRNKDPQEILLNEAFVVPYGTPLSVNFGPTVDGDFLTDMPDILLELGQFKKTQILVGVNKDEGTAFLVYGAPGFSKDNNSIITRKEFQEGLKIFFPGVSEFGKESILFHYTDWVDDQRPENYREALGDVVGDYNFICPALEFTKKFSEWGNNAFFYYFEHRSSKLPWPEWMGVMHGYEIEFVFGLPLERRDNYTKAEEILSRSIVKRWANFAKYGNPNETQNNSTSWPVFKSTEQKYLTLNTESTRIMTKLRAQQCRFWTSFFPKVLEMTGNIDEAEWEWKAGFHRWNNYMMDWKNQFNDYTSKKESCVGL
The label fulfilled is reserved for IC50 strictly under 4 µM; not fulfilled covers values equal to or above it.

IN: Threshold test, IC50 < 4 µM: O=[N+]([O-])c1ccc(-c2nnc(SC/C(=N/NC(=S)Nc3cccc([N+](=O)[O-])c3)c3ccc(-c4ccccc4)cc3)[nH]2)cc1
OUT: not fulfilled

IN: Threshold test, IC50 < 4 µM: Cc1ccc(/C(CSc2nnc(-c3ccc([N+](=O)[O-])cc3)[nH]2)=N\NC(=S)Nc2cc(Cl)c(Cl)cc2[N+](=O)[O-])c([N+](=O)[O-])c1
OUT: not fulfilled

IN: Threshold test, IC50 < 4 µM: O=[N+]([O-])c1ccc(NC(=S)N/N=C(/CSc2nnc(-c3ccc([N+](=O)[O-])cc3)[nH]2)c2ccccc2[N+](=O)[O-])cc1
OUT: fulfilled

IN: Threshold test, IC50 < 4 µM: Cc1ccc(NC(=S)N/N=C(/CSc2nnc(-c3ccc([N+](=O)[O-])cc3)[nH]2)c2ccccc2[N+](=O)[O-])c([N+](=O)[O-])c1
OUT: fulfilled

IN: Threshold test, IC50 < 4 µM: COc1cccc(/C(CSc2nnc(-c3ccc([N+](=O)[O-])cc3)[nH]2)=N\NC(=S)Nc2ccc([N+](=O)[O-])cc2)c1
OUT: fulfilled

IN: Threshold test, IC50 < 4 µM: Cc1ccc(NC(=S)N/N=C(/CSc2nnc(-c3ccc([N+](=O)[O-])cc3)[nH]2)c2ccc(Cl)c(Cl)c2)c([N+](=O)[O-])c1
OUT: fulfilled

From: paper PMC9821906
